The measured values listed here are drawn from patent US20260265329A1.

tested target: T1, human amylin receptor on CHO-K1/Ga15/AMY3 cells (amylin receptor/CRE-luc cell line) (human) (UniProt P30988)
T1 sequence (looked up) 1: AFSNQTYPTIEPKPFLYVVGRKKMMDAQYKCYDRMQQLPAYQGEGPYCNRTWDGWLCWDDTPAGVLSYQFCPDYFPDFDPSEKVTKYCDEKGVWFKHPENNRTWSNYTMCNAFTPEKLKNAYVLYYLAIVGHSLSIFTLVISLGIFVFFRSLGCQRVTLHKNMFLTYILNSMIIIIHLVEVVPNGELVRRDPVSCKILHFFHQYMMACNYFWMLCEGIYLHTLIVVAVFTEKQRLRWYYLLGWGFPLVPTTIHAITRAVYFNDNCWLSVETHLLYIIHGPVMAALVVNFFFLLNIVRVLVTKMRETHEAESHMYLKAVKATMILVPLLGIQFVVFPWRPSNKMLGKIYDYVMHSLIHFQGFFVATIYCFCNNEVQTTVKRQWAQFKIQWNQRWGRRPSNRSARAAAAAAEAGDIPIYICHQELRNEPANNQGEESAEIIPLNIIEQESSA
T1 sequence (looked up) 2: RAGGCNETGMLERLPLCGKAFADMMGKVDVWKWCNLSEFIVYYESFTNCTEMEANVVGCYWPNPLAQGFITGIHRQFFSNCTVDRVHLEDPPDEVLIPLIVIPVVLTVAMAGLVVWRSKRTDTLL
assay info: cell-based or functional assay
Non-standard residues stand in square brackets, D forms with d. Primed or numbered codes have the meaning given here. *: point of attachment. C20 diacid = O=C(O)CCCCCCCCCCCCCCCCCCC(=O)*; Hyp = O=C(O)[C@@H]1C[C@@H](O)CN1; Inp′ = not defined here; Trx′ = not defined here; AEEA = NCCOCCOCC(=O)O
Listing: EC50 (luciferase assay, amylin receptor/CRE-luc CHO cells) of selected binders
attribute measured: EC50 (luciferase assay, amylin receptor/CRE-luc CHO cells)

1. {C20 diacid-Trx′-AEEA-AEEA}-ASQLSTAATQRLADFLRHSSNNLKPILPPTNVGSNT[Hyp]-NH2 (reading uncertain) [M35]    0.043 nM
2. {C20 diacid-Inp′-AEEA-AEEA}-ASQLSTAATQRLADFLRHSSNNLKPILPPTNVGSNT[Hyp]-NH2 [M36]    0.059 nM
3. {C20 diacid-Inp′}-ASQLSTAATQRLADFLRHSSNNLKPILPPTNVGSNT[Hyp]-NH2 [M30]    0.039 nM
4. {C20 diacid-Trx′}-ASQLSTAATQRLADFLRHSSNNLKPILPPTNVGSNT[Hyp]-NH2 (reading uncertain) [M29]    0.122 nM
